Recorded values, source ChEMBL document CHEMBL6096685.

- test: Half life in BALB/c mouse at 2.77 mg/kg, iv measured upto 24 hrs by LC-MS/MS analysis
- Format: ADME, organism-based
- condition: in vivo
property label: half-life (min)
Your answer is read as min, so omit the unit and give the number.

State the recorded half-life for this entry: `COCCN[C@H]1CC[C@H](Nc2ncc3cc(C(=O)N(C)C)n(C4CCCC4)c3n2)CC1`
44

* * *

- test: Initial plasma concentration in BALB/c mouse at 2.68 mg/kg, iv measured upto 24 hrs by LC-MS/MS analysis
- Type: ADME, organism-based
property label: C0 at 24 h (ng/mL)
Provide only the numeric value, understood in ng/mL.

GET /values?readout=C0 at 24 h&item= `CN(C)C(=O)c1cc2cnc(N[C@H]3CC[C@H](NCCO)CC3)nc2n1C1CCCC1`
1970
